Data origin: patent US5340818A

# Tested on: DNA synthesis in HL-60 cells
# test details: Inhibition of [3H-methyl]dThd incorporation into DNA of HL-60 cells
# Type: cell-based, human
# assay setup: Homo sapiens, HL-60, at 0.03 mg/mL; read-out: % Inhibition of Precursor Incorporation, DNA
# Experimental: For the precursor incorporation studies, each compound (in 0.3% dimethylsulfoxide) was preincubated with HL-60 cells (a human promyelocytic leukemic cell line) 2.2×10^6 /ml, for 15 min prior to the addition of the labeled precursor (obtained from ICN Radiochemicals, Irvine, Calif.) and then incubated for 30 min. […] Incorporation of radioactivity in the absence of a plant compound and in the presence of dimethylsulfoxide was used as a control. […]
# inhibition at 30 µg/mL values compiled below

C=C(C)C1CCC2(C)CC1c1c(cc3c(c1O)c(=O)c1cccc(O)c1n3C)O2 (centres unmarked) [Compound 50, Cycloglyco-foline] | 98.7%
COc1ccc2c(=O)c3c(O)cc4c(c3n(C)c2c1OC)C=CC(C)(C)O4 [Compound 44, Citracridone-II] | 77.6%

Q: Recorded inhibition at 30 µg/mL of COc1c(OC)c(OC)c2c(c1O)c(=O)c1ccc(O)c(OC)c1n2C [Compound 31, Glyfoline] , please.
A: 93.5%

Q: Recorded inhibition at 30 µg/mL of COc1cc(O)c2c(=O)c3cccc(O)c3n(C)c2c1CC=C(C)C [Compound 13, Glycocitrine-I] , please.
A: 97.5%

Q: Recorded inhibition at 30 µg/mL of COc1cc(OC)c2c(=O)c3ccccc3n(C)c2c1 [Compound 10, 1,3-Dimethoxy-N-methyl acridone] , please.
A: > 90%

###

# System: RNA synthesis in HL-60 cells
# test details: Inhibition of [5-3H]Cyd incorporation into RNA of HL-60 cells
# Assay type: cell-based, human
# assay setup: Homo sapiens, HL-60, 0.5 h, at 0.03 mg/mL; read-out: % Inhibition of Precursor Incorporation, RNA
readout kind: inhibition at 30 µg/mL (%)
The figure you give is taken to be in %; do not add the unit.

Solved entries:
COc1c(O)ccc2c(=O)c3c(O)cc4c(c3n(C)c12)C=CC(C)(C)O4 [Compound 42, Citracridone-I] | 96.9
Cn1c2c(O)cccc2c(=O)c2c(O)cc3c(c21)C=CC(C)(C)O3 [Compound 37, 11-Hydroxy-noracronycine] | 96.6
COc1cc(OC)c2c(=O)c3ccc(OC)c(OC)c3n(C)c2c1 [Compound 24, 1-O-Methyl-citpressine-II] | 67.3

Q: Recorded inhibition at 30 µg/mL of CC(=O)Oc1cccc2c(=O)c3c(O)c(CC=C(C)C)c4c(c3n(C)c12)C=CC(C)(C)O4 [Compound 47, 11-O-Acetyl-N-methyl severifoline] , please.
A: 16.2

###

# Tested on: DNA synthesis in HL-60 cells
# test details: Inhibition of [3H-methyl]dThd incorporation into DNA of HL-60 cells
# Format: cell-based, human
# assay setup: Homo sapiens, HL-60, at 0.03 mg/mL; read-out: % Inhibition of Precursor Incorporation, DNA
readout kind: inhibition at 30 µg/mL (%)
The figure you give is taken to be in %; do not add the unit.

Solved entries:
COc1cc(O)c2c(=O)c3cccc(OC)c3n(C)c2c1OC | 93.4
CC(C)=CCc1c(O)c(CC=C(C)C)c2c(c1O)c(=O)c1cccc(O)c1n2C | 99.6
COc1cc(O)c2c(=O)c3ccc(O)c(OC)c3n(C)c2c1CC=C(C)C | 98.5

Field: next molecule
Q: Recorded inhibition at 30 µg/mL of CC(C)=CCc1c2c(c3[nH]c4c(O)cccc4c(=O)c3c1O)C=CC(C)(C)O2 , please.
A: 98.8

###

# Tested on: DNA synthesis in HL-60 cells
# test details: Inhibition of [3H-methyl]dThd incorporation into DNA of HL-60 cells
# Type: cell-based, human
# assay setup: Homo sapiens, HL-60, at 0.03 mg/mL; read-out: % Inhibition of Precursor Incorporation, DNA
Values of inhibition at 30 µg/mL greater than or equal to 90% map to satisfied; values below map to not satisfied.

Look over these answered cases.
Cn1c2c(O)cccc2c(=O)c2c(O)cc3c(c21)C=CC(C)(C)O3 [Compound 37, 11-Hydroxy-noracronycine] | satisfied
CC(C)=CCc1c2c(c3[nH]c4ccccc4c(=O)c3c1O)C=CC(C)(C)O2 [Compound 36, Severifoline] | not satisfied
COc1cc(O)c2c(=O)c3ccccc3n(C)c2c1 [Compound 7, 1-Hydroxy-3-methoxy N-methyl acridone] | not satisfied
COc1c(O)ccc2c(=O)c3c(O)cc4c(c3n(C)c12)C=CC(C)(C)O4 [Compound 42, Citracridone-I] | satisfied
Cn1c2c(O)cccc2c(=O)c2c(O)cc3c(c21)CCC(C)(C)O3 [Compound 38, 1,2-Dihydro-11-hydroxy-nor acronycine] | satisfied

Q: Quick check, inhibition at 30 µg/mL >= 90%? COc1cc2c(c3[nH]c4ccccc4c(=O)c13)C=CC(C)(C)O2 [Compound 33, des-N-methyl acronycine]
A: satisfied

Q: Quick check, inhibition at 30 µg/mL >= 90%? COc1c(OC(C)=O)ccc2c(=O)c3c(O)cc(OC(C)=O)c(CC=C(C)C)c3n(C)c12 [Compound 28, 3,6-O,O-Diacetyl-prenylcitpressine]
A: satisfied

Q: Quick check, inhibition at 30 µg/mL >= 90%? COc1cc(O)c2c(=O)c3cccc(O)c3n(C)c2c1OC [Compound 16, Citrusinine-I]
A: satisfied

Q: Quick check, inhibition at 30 µg/mL >= 90%? CC(C)=CCc1c2c(c3c(c1O)c(=O)c1ccccc1n3C)C=CC(C)(C)O2 [Compound 41, N-Methylseverifoline]
A: not satisfied

Q: Quick check, inhibition at 30 µg/mL >= 90%? COc1ccc2c(=O)c3c(OC)cc4c(c3n(C)c2c1OC)C=CC(C)(C)O4 [Compound 45, 6-O-Methylcitracridone-II]
A: satisfied

Q: Quick check, inhibition at 30 µg/mL >= 90%? CC(=O)Oc1cccc2c(=O)c3c(O)c(CC=C(C)C)c4c(c3n(C)c12)C=CC(C)(C)O4 [Compound 47, 11-O-Acetyl-N-methyl severifoline]
A: not satisfied

Q: Quick check, inhibition at 30 µg/mL >= 90%? CC(C)=CCc1c2c(c3c(c1O)c(=O)c1cccc(O)c1n3C)C=CC(C)(C)O2 [Compound 46, 11-Hydroxy-N-methyl severifoline]
A: satisfied

Q: Quick check, inhibition at 30 µg/mL >= 90%? COc1cc(O)c2c(=O)c3ccc(OC)c(O)c3n(C)c2c1 [Compound 21, Grandisine-I]
A: not satisfied

Q: Quick check, inhibition at 30 µg/mL >= 90%? CC(=O)Oc1cc(OC(C)=O)c2c(=O)c3ccccc3[nH]c2c1 [Compound 5, 1,3-O,O-Diacetyl-acridone]
A: not satisfied

Q: Quick check, inhibition at 30 µg/mL >= 90%? COc1cc(O)c2c(=O)c3ccc(OC)c(OC)c3n(C)c2c1
A: not satisfied

Q: Quick check, inhibition at 30 µg/mL >= 90%? CC1(C)C=Cc2c(cc(O)c3c(=O)c4cccc(O)c4[nH]c23)O1 [Compound 34, Atalaphyllidine]
A: not satisfied

Q: Quick check, inhibition at 30 µg/mL >= 90%? CC1(C)C=Cc2c(cc(O)c3c(=O)c4ccccc4[nH]c23)O1 [Compound 32, des-N-methyl-nor-acronycine]
A: not satisfied

Q: Quick check, inhibition at 30 µg/mL >= 90%? O=c1c2ccccc2[nH]c2cc(O)cc(O)c12 [Compound 4, 1,3-Dihydroxy-acridone]
A: not satisfied

Q: Quick check, inhibition at 30 µg/mL >= 90%? COc1c(O)ccc2c(=O)c3c(O)cc4c(c3n(C)c12)CCC(C)(C)O4 [Compound 43, 1,2-dihydrocitracridone-I]
A: satisfied

Q: Quick check, inhibition at 30 µg/mL >= 90%? COc1cc(OC(C)=O)c2c(=O)c3cccc(OC(C)=O)c3n(C)c2c1CC=C(C)C [Compound 14, OO-Diacetyl-glycocitrine-I]
A: satisfied

Q: Quick check, inhibition at 30 µg/mL >= 90%? CC(=O)Oc1cc(OC(C)=O)c2c(=O)c3ccccc3n(C)c2c1 [Compound 6]
A: not satisfied

Q: Quick check, inhibition at 30 µg/mL >= 90%? COc1ccc2c(=O)c3c(O)cc(OC(C)=O)cc3n(C)c2c1OC [Compound 20, O-Acetyl-grandisine-II]
A: not satisfied

###

# System: DNA synthesis in HL-60 cells
# test details: Inhibition of [3H-methyl]dThd incorporation into DNA of HL-60 cells
# Assay type: cell-based, human
# assay setup: Homo sapiens, HL-60, at 0.03 mg/mL; read-out: % Inhibition of Precursor Incorporation, DNA
Values of inhibition at 30 µg/mL greater than or equal to 90% map to Satisfied; values below map to Not satisfied.

Look over these answered cases.
COc1ccc2c(=O)c3c(O)cc(O)cc3n(C)c2c1OC | Not satisfied
COc1c(O)ccc2c(=O)c3c(O)cc(O)c(CC=C(C)C)c3n(C)c12 | Not satisfied
COc1cc(OC)c2c(=O)c3ccc(OC)c(OC)c3n(C)c2c1 | Satisfied

Q: Quick check, inhibition at 30 µg/mL >= 90%? COc1c(O)ccc2c(=O)c3c(O)c(CC=C(C)C)c(O)cc3n(C)c12
A: Satisfied
